Test system: acetaminophen-induced hepatotoxicity
ASSAY NOTES: Protection against acetaminophen-induced hepatotoxicity in mice
Format: in vivo
CONDITIONS USED: LD90 acetaminophen ip, prodrug 2.45 mmole/kg ip 30 min later, liver histology, Mitchell rating
Reported Number of Animals with necrosis 0 by item:

Example cases with answers are listed next.
O=C(O)[C@@H]1CSC([C@@H](O)[C@@H](O)[C@H](O)CO)N1 (stereo partly drawn) [LyxCys] :: 0
O=C(O)[C@@H]1CSC([C@H](O)[C@@H](O)[C@H](O)CO)N1 (stereo partly drawn) [XylCys] :: 3
O=C(O)[C@@H]1CSC([C@H](O)CO)N1 (stereo partly drawn) [GlycCys] :: 0
O=C(O)[C@@H]1CSC([C@H](O)[C@@H](O)[C@@H](O)[C@H](O)CO)N1 (stereo partly drawn) [GalCys] :: 1
O=C(O)[C@@H]1CSC([C@H](O)[C@H](O)[C@H](O)CO)N1 (stereo partly drawn) [RibCys] :: 4

O=C(O)[C@@H]1CSC([C@H](O)[C@@H](O)[C@H](O)[C@H](O)CO)N1 (stereo partly drawn) [GlcCys] tested on acetaminophen-induced hepatotoxicity gave Number of Animals with necrosis 0: 0

Given the compound CC(=O)N[C@@H](CS)C(=O)O [NAC, N-Acetyl-L-cysteine, reference compound] and test system acetaminophen-induced hepatotoxicity, the measured Number of Animals with necrosis 0 is 13

Test item O=C(O)[C@@H]1CSC([C@@H](O)[C@@H](O)[C@H](O)[C@H](O)CO)N1 (stereo partly drawn) [ManCys] ; acetaminophen-induced hepatotoxicity; reported Number of Animals with necrosis 0 was 3

Query O=C(O)[C@@H]1CSC([C@@H](O)[C@H](O)[C@H](O)CO)N1 (mixture of isomers) [AraCys] on acetaminophen-induced hepatotoxicity; Number of Animals with necrosis 0 returned: 0

---

System: rat hepatocytes
ASSAY NOTES: Stimulation of glutathione (GSH) biosynthesis in isolated rat hepatocytes by L-cysteine prodrugs
Format: cell-based
CONDITIONS USED: Hepatocyte; rat hepatocytes, prodrug 1.0 mM, 4 hr incubation; read-out: [GSH] Rel. to Controls
Experimental: Rat hepatocytes were isolated following the methods of P. O. Seglen, Exper. […] After final plating, the hepatocytes were maintained in culture for 24 hr prior to use. Only primary cultures were used throughout the studies. The hepatocytes were incubated with the cysteine prodrugs for a 4-hr period, and after removal of media by aspiration, the cells were rinsed with cold phosphate-buffered saline and deproteinized with 5% sulfosalicylic acid. […]
ENDPOINT LABEL: fold induction at 1000 µM
Just the number, please, no unit after it.

Worked cases, fold induction at 1000 µM given:
O=C(O)[C@@H]1CSC([C@@H](O)[C@@H](O)[C@H](O)[C@H](O)CO)N1 (stereo partly shown) :: 1.6
O=C(O)[C@@H]1CSC([C@H](O)CO)N1 (stereo partly shown) :: 1.3
O=C(O)[C@@H]1CSC([C@H](O)[C@@H](O)[C@H](O)[C@H](O)CO)N1 (stereo partly shown) :: 2.1

API: the following record is the query input.
The value of fold induction at 1000 µM measured for the compound O=C(O)[C@@H]1CSC([C@H](O)[C@H](O)[C@H](O)CO)N1 (stereo partly shown) turned out to be 1.7

---

Tested on: rat hepatocytes
ASSAY NOTES: Stimulation of glutathione (GSH) biosynthesis in isolated rat hepatocytes by L-cysteine prodrugs
Format: cell-based
CONDITIONS USED: Hepatocyte; rat hepatocytes, prodrug 1.0 mM, 4 hr incubation; read-out: [GSH] Rel. to Controls
Reported fold induction at 1000 µM values for the following compounds.
Write no unit; give the number alone.

Solved cases (3 shown):
O=C(O)[C@@H]1CSC([C@@H](O)[C@H](O)[C@H](O)CO)N1 (mixture of isomers) :: 1.2
O=C(O)[C@@H]1CSC([C@@H](O)[C@@H](O)[C@H](O)CO)N1 (stereo partly shown) :: 1.3
O=C(O)[C@@H]1CSC([C@H](O)[C@@H](O)[C@H](O)CO)N1 (stereo partly shown) :: 1.6

Proceed to the following item.
Form field fold induction at 1000 µM, entry O=C(O)[C@@H]1CSC([C@H](O)[C@@H](O)[C@@H](O)[C@H](O)CO)N1 (stereo partly shown) : 1.6
